For each entry below, report its IC50 value.
# target_or_system: Bromodomain-containing protein 3 (Homo sapiens)
# Sequence (Q15059 whole entry): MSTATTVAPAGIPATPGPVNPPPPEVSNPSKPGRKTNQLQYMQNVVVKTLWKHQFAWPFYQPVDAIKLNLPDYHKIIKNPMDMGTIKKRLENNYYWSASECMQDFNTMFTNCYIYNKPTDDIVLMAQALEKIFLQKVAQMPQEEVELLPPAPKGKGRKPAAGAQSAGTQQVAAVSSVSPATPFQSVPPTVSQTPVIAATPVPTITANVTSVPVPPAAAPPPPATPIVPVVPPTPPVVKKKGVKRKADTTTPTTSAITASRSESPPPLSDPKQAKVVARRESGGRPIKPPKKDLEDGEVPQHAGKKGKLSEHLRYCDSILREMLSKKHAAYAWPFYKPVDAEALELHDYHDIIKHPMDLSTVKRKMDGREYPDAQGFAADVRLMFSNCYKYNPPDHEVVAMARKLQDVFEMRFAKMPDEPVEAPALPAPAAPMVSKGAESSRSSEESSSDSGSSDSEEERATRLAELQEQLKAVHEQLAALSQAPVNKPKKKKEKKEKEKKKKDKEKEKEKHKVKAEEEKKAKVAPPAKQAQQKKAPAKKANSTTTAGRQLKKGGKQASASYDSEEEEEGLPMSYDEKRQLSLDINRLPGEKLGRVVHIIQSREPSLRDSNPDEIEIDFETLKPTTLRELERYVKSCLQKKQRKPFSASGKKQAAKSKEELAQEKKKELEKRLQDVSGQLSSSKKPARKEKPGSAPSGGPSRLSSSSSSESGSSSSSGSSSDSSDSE
# protocol_text: Binding affinity to BRD3 containing BD2 bromodomains (unknown origin) by TR-FRET assay

Parameters: items (list). Returns: IC50 for each item.
1. Cc1cncc(-c2cnc(N[C@@H]3CCN(C)C[C@H]3OCC3CCS(=O)(=O)CC3)c3[nH]c(=O)c(C)cc23)c1
2. Cc1cncc(-c2cnc(N[C@@H]3CCNC[C@H]3OCC3CCS(=O)(=O)CC3)c3[nH]c(=O)c(C)cc23)c1

> 50.1 µM
> 50.1 µM

---

# protocol_text: Distribution coefficient, log D of the compound at pH 7.4 by chromatographic method
# Type: physicochemical
# applied_conditions: octanol/water
Field: chromatographic logD. Provide a value for each of the compounds that follow.
Give bare numbers.

# count of solved cases: 10
| compound | numeric_value |
| --- | --- |
| Cc1cc2ccnc(N[C@@H]3CCNC[C@H]3OC[C@@H]3CCS(=O)(=O)C3)c2[nH]c1=O (racemic) | 1 |
| Cc1cc2ccnc(N[C@@H]3CCNC[C@H]3OC(C)C)c2[nH]c1=O (racemic) | 1.8 |
| Cc1cc2ccnc(N[C@@H]3CCNC[C@H]3OCC(C)C)c2[nH]c1=O (racemic) | 2.3 |
| Cc1cncc(-c2cnc(N[C@@H]3CCNC[C@H]3OCC3CCS(=O)(=O)CC3)c3[nH]c(=O)c(C)cc23)c1 | 1.6 |
| CO[C@@H]1CNCC[C@H]1Nc1nccc2cc(C)c(=O)[nH]c12 | 0.9 |
| Cc1cc2ccnc(N[C@H]3CCNC[C@@H]3OCC3CCS(=O)(=O)CC3)c2[nH]c1=O | 1.1 |
| Cc1cc2ccnc(N[C@@H]3CCNC[C@H]3OCC3CCCCC3)c2[nH]c1=O (racemic) | 3.3 |
| CCCO[C@@H]1CNCC[C@H]1Nc1nccc2cc(C)c(=O)[nH]c12 (racemic) | 1.8 |
| Cc1cc2ccnc(N[C@@H]3CCNC[C@H]3OC[C@H]3CC[C@H](O)CC3)c2[nH]c1=O (racemic) | 0.7 |
| Cc1cc2ccnc(N[C@@H]3CCNC[C@H]3OCC3CCCC3)c2[nH]c1=O (racemic) | 3.1 |

Each compound below has a reported value. Please supply its chromatographic logD.
1. Cc1cncc(-c2cnc(N[C@H]3CCNC[C@@H]3OCC3CCCCC3)c3[nH]c(=O)c(C)cc23)c1
2. Cc1cc2ccnc(N[C@@H]3CCNC[C@H]3OCC3CCOCC3)c2[nH]c1=O (racemic)
3. Cc1cc2ccnc(N[C@H]3CCNC[C@@H]3OCC3CCCCC3)c2[nH]c1=O

4.2
1.7
3.3

Quick batch: chromatographic logD for everything below.
1. Cc1cncc(-c2cnc(N[C@@H]3CCNC[C@H]3OCC3CCCCC3)c3[nH]c(=O)c(C)cc23)c1
2. CC(=O)N1CCC(CO[C@@H]2CNCC[C@H]2Nc2nccc3cc(C)c(=O)[nH]c23)CC1 (racemic)
3. Cc1cncc(-c2cnc(N[C@@H]3CCN(C)C[C@H]3OCC3CCS(=O)(=O)CC3)c3[nH]c(=O)c(C)cc23)c1

4
1.2
2.3

Data provenance is ChEMBL document CHEMBL3588744.
